- assay_system: cGMP-specific 3',5'-cyclic phosphodiesterase (Homo sapiens)
property_measured: IC50 (nM)
Express it in nM; write the number only.

A selection of reference data follows.
compound_smiles=CCCOc1ccc(NC(C)=O)cc1-c1nc2c(CCC)nn(C)c2c(=O)[nH]1 property_measured=IC50 measurement=0.813
compound_smiles=CCCc1nn(C)c2c(=O)[nH]c(-c3cc(S(=O)(=O)N4CCN(C)CC4)cc4c3OCCO4)nc12 property_measured=IC50 measurement=7.94
compound_smiles=CCCOc1ccc(S(=O)(=O)N2CCC(CCC(=O)O)CC2)cc1-c1nc2c(CCC)nn(C)c2c(=O)[nH]1 property_measured=IC50 measurement=0.0501
compound_smiles=CCCc1nn(C)c2c(=O)[nH]c(-c3cc(S(=O)(=O)N4CCC(CC(=O)O)CC4)ccc3OCC)nc12 property_measured=IC50 measurement=0.331
compound_smiles=CCCc1nn(C)c2c(=O)[nH]c(-c3cc(S(=O)(=O)N4CCN(CCO)CC4)cc4c3OCC4)nc12 property_measured=IC50 measurement=204

Request: // fetch cGMP-specific 3',5'-cyclic phosphodiesterase (Homo sapiens) IC50 for `CCCc1nn(C)c2c(=O)[nH]c(-c3cc(S(=O)(=O)N4CCC(C(=O)O)CC4)ccc3OCC)nc12`
Result: 0.513

Request: Form field: IC50 recorded for `CCCc1nn(C)c2c(=O)[nH]c(-c3cc(S(=O)(=O)N4CCN(CCO)CC4)cc4c3OCCO4)nc12` with cGMP-specific 3',5'-cyclic phosphodiesterase (Homo sapiens) (enter value)
Result: 6.31

Request: # get_value(readout= IC50, system= cGMP-specific 3',5'-cyclic phosphodiesterase (Homo sapiens)) for `CCCc1nn(C)c2c(=O)[nH]c(-c3cc(S(=O)(=O)N4CCC(CCC(=O)O)CC4)ccc3OCC)nc12`
Result: 0.151

* * *

- assay_system: cGMP-specific 3',5'-cyclic phosphodiesterase (Homo sapiens)
property_measured: IC50 (nM)
Write it as a number; the unit nM goes unstated.

Illustrative cases are given below, each with its answer.
compound_smiles=CCCOc1ccc(NC(=O)C(C)C)cc1-c1nc2c(CCC)nn(C)c2c(=O)[nH]1 assay_system="cGMP-specific 3',5'-cyclic phosphodiesterase (Homo sapiens)" property_measured=IC50 measurement=0.347
compound_smiles=CCCc1nn(C)c2c(=O)[nH]c(-c3cc(S(=O)(=O)N4CCN(CCC(=O)O)CC4)ccc3OCC)nc12 assay_system="cGMP-specific 3',5'-cyclic phosphodiesterase (Homo sapiens)" property_measured=IC50 measurement=0.407

Continue with the molecule presented below.
Request: Observed IC50 on cGMP-specific 3',5'-cyclic phosphodiesterase (Homo sapiens) for `CCCOc1ccc(S(=O)(=O)N2CCC(CC(=O)O)CC2)cc1-c1nc2c(CCC)nn(C)c2c(=O)[nH]1` , please.
Result: 0.11
